# Test system: NCI/ADR-RES ovarian
# Assay Remarks: NCI tumour cell line growth inhibition, 48 h

Compound	Target Or System	TGI
Cn1c(=O)nc2n(CCO)ccnc-2c1=O	NCI/ADR-RES ovarian	> 100 µM
CSC(=NC1CC(n2cc(C)c(=O)[nH]c2=O)OC1CO)NC#N (stereo unspecified)	NCI/ADR-RES ovarian	> 100 µM
O=C1Nc2ccccc2C1(c1ccc(O)c(F)c1)c1ccc(O)c(F)c1	NCI/ADR-RES ovarian	> 100 µM
O=c1c2c(sc3ccccc13)NCN(CCc1ccccc1)C2	NCI/ADR-RES ovarian	99 µM
COc1ccc(-c2cc(-c3ccc(O)cc3)nc3nc(=S)[nH]c(N)c23)cc1	NCI/ADR-RES ovarian	66.3 µM
Cn1c(=O)oc2cc(C(=S)N3CCC(Cc4ccccc4)CC3)ccc21	NCI/ADR-RES ovarian	> 100 µM
O=C(Cn1c(C(=O)/C=C/c2ccco2)nc2ccccc21)c1ccc(Cl)cc1	NCI/ADR-RES ovarian	30.4 µM
CC(=O)OCc1cccc(O)c1C(=O)CCC=C(C)C	NCI/ADR-RES ovarian	> 100 µM
COc1cc(-c2cc(/C=C/C(=O)c3ccc4c(c3)OCO4)[nH]n2)cc(OC)c1OC	NCI/ADR-RES ovarian	> 100 µM
CC(Oc1ccccc1)C(=O)NN (stereo unspecified)	NCI/ADR-RES ovarian	> 100 µM
C(=N/Nc1ncnc2nc[nH]c12)/c1ccccn1	NCI/ADR-RES ovarian	> 22.3 µM

====

# System: SK-MEL-2 melanoma
# Assay Remarks: NCI tumour cell line growth inhibition, 48 h

Compound	TGI
O=C(c1ccccn1)c1nnn2ccccc12	> 100 µM
OCCOCCN1CCN(c2nc(N3CCCC3)c3nc(Cl)c(NCc4ccccc4)nc3n2)CC1	32 µM
CCCCCCCCCCCC1=NC(C)(C)CN1CCO	22.4 µM
CCOC(=O)C1=C(OS(=O)(=O)C(F)(F)F)CCCC1	> 100 µM
O=c1cc2n(c(=O)[nH]1)C1OC(C(O)C1O)[C@H]2CCO (stereo partly drawn)	> 100 µM
Brc1ccccc1/C=C\C1(c2ccccc2)OCCO1	44.7 µM
O=C1OC(c2ccccc2)C2CC3CC4(CCC3CN12)OCCO4 (stereo not drawn)	> 100 µM
O=C(Nc1ccc(Cl)c(Cl)c1)C(=O)Nn1c(=S)[nH]c2ccccc2c1=O	> 100 µM
CC1=NN(c2nc(N)nc(C(C)Sc3cc(Cl)c(C)cc3S(N)(=O)=O)n2)C(C)(C)C1 (stereo not drawn)	> 10 µM
COc1cc(C(=O)NC2CCN(C)CC2)ccc1Nc1ncc2c(n1)N(C1CCCC1)CC(F)(F)C(=O)N2C	6.56 µM
O=C1C=C(c2c(-c3ccccc3)[nH]c3ccccc23)C(=O)N1c1ccccc1	28.4 µM
CN(CCCCCl)P(=O)(OCc1ccc([N+](=O)[O-])o1)C(F)(F)c1ccc(CC(=O)N[C@@H](CC(=O)O)C(=O)N[C@@H](Cc2ccc(C(F)(F)P(=O)(OCc3ccc([N+](=O)[O-])o3)N(C)CCCCCl)cc2)C(N)=O)cc1 (stereo partly drawn)	57.4 µM
COCC1C(=O)c2cc3c(cc2C12C=CC1(C=C2)OCCO1)OCO3 (stereo not drawn)	24.5 µM
Cc1nc2c(O)cccc2c(=O)[nH]1	> 1000 µM
O=C(/C=C/c1ccccn1)c1ccccc1O	4.88 µM
COc1c(C(=O)/C(=N/Nc2ccccc2)C(C)=O)c(O)c(OC)c2occc12	> 100 µM
O=c1c2c(sc3ccccc13)NCN(CCc1ccccc1)C2	75.4 µM
Cc1cccc2nc3n(c12)C(=O)c1ccccc1-3	> 100 µM
COc1ccc(-c2cn(-c3ccc(Cl)cc3)c(=S)[nH]2)cc1OC	> 100 µM
CN(C)CCSC(=Nc1ccccc1)N1C=COC=C1	32.1 µM
CN(C)c1ccc(/C=C(\C#N)c2cc3ccccc3n2C)cc1	> 100 µM
OC(c1ccc(F)cc1)C(F)(F)c1nc(-c2ccccc2)no1 (stereo not drawn)	39.1 µM
O=C(Cn1c(C(=O)/C=C/c2ccco2)nc2ccccc21)c1ccc(Cl)cc1	27.8 µM
CN(C)CCCc1cccnc1	> 100 µM
C(=N/Nc1ncnc2nc[nH]c12)/c1ccccn1	> 100 µM
CCCCCCNC(=O)c1cc(C#Cc2cc(OC)ccc2OC)ccc1OC	> 100 µM
CCN(CC)CCCC(C)NC(=O)c1cc(-c2nccn2C)nc2ccc(C)cc12 (stereo not drawn)	> 100 µM
CC(C)c1ccc2c(N=Nc3ccc(S(N)(=O)=O)cc3)c(O)[nH]c2c1	> 21.6 µM
C[C@@H]1CCC2[C@@H](C)[C@H](O[C@H]3O[C@@H]4O[C@@]5(C)CCC6[C@H](C)CCC([C@H]3C)[C@]64OO5)O[C@@H]3O[C@@]4(C)CCC1[C@@]23OO4 (stereo partly drawn)	9.69 µM
CCc1ccc(CCC(=O)O)nc1	> 100 µM
COc1ccc(N2C(=O)CSC2c2cc3cc(Br)ccc3nc2Cl)cc1 (stereo not drawn)	> 50 µM
CSc1c(CC(=O)O)n(Cc2ccccc2)c2ccccc12	> 100 µM
O=C(c1ccccc1)c1ccc(Cl)c([N+](=O)[O-])c1	6.89 µM
Cc1[nH]c2ncn3ncnc3c2c1Cc1ccccc1	> 100 µM
CC(=O)Nc1ccc2c3c(cc(O)c2c1)N(C(=O)CCCC(=O)Nc1ccc2c4c(cc(O)c2c1)N(C(=O)OC(C)(C)C)CC4CCl)CC3CCl (stereo not drawn)	1.84 µM
COc1cc(C2c3cc4c(cc3[C@H](NC(=O)c3cccs3)C3COC(=O)[C@H]23)OCO4)cc(OC)c1OC (stereo partly drawn)	> 100 µM
COC(=O)c1ccccc1/C=C1\Cc2cc3c(cc2C1=O)CCC3	> 100 µM
CN1C[C@H]2[C@@H](C1=O)[C@H](c1ccc([N+](=O)[O-])cc1)ON2C	> 100 µM
COC(=O)C(/C(=N/N)C(=O)Nc1ccc(C)c(C)c1)c1nc2ccc(Cl)cc2[nH]c1=O (stereo not drawn)	> 100 µM
O=C1CSC(=S)N1c1ccc(F)cc1F	> 100 µM
NC(=O)Cc1ncn(-c2ccccc2)n1	> 100 µM
Cn1c(N(CCO)CCO)cnc1[N+](=O)[O-]	> 100 µM
Nc1ncnc2c1c(-c1cccc(OCc3ccccc3)c1)cn2C1CC(CN2CCCC2)C1 (stereo not drawn)	3.35 µM
